All figures here come from PubChem BioAssay AID1259421.

Listed here are compounds together with their documented activity change, negative = inhibition.
Assay: T. gondii ME49Luc in HeLa cells, luciferase assay, 72 h, no IFN-y (AID 1259421)
Settings: active compounds read low, concentration not given here
The whole screen tested about 6,400 compounds, of which about 610 (9.5%) were called active. This is one part of a sample in which actives are shown more often than they occur.

[
  {
    "Compound": "Cc1cc(C(C)(C)CC(C)(C)C)ccc1OCCOCC[N+](C)(C)Cc1ccccc1",
    "activity change, negative = inhibition [%]": -1.86
  },
  {
    "Compound": "O=C(/C=C/c1ccc(O)c(O)c1)O[C@@H]1C[C@](OC(=O)/C=C/c2ccc(O)c(O)c2)(C(=O)O)C[C@@H](O)[C@H]1O",
    "activity change, negative = inhibition [%]": 2.12
  },
  {
    "Compound": "O=C(O)CCCCN(CCc1ccccc1OCc1ccc(CCc2ccccc2)cc1)Cc1ccc(C(=O)O)cc1",
    "activity change, negative = inhibition [%]": 10.8
  },
  {
    "Compound": "CCC(=O)OCC(=O)C1(OC(=O)CC)C(C)CC2C3CCC4=CC(=O)C=CC4(C)C3(Cl)C(O)CC21C (stereo not given)",
    "activity change, negative = inhibition [%]": -2.98
  },
  {
    "Compound": "C[N+](C)(CCOc1ccccc1)Cc1ccccc1",
    "activity change, negative = inhibition [%]": 13.6
  }
]
